Reported pIC50 values are given for each entry in this list.
- Test system: KDM5A/B
- method: In vitro cell-based assay: immuno-blot quantification of tri-methyl H3K4 in ZR-75-1 breast cancer cells
- conditions: 72 hours, tri-methyl H3K4 level relative to GAPDH, percent of DMSO, read-out: Cellular IC50
pIC50: −log10 of the molar value.

Previously resolved entries follow.
# mol, pIC50
records = [
    ("O=C(C1CC1)N1CCC[C@H](n2cc(Oc3nc(O)c4ccncc4n3)cn2)C1", "5.00 to 6.00"),
    ("Oc1nc(Oc2cnn([C@H]3CCN(c4ccc(F)cc4)C3)c2)nc2cnccc12", "5.00 to 6.00"),
    ("Oc1nc(OCCOc2ccccc2)nc2cnccc12", "< 5.00"),
    ("O=S(=O)(c1ccccc1)N1CCC[C@H](n2cc(Oc3nc(O)c4ccncc4n3)cn2)C1", "6.00 to 7.00"),
    ("N#CCC(=O)N1CCC[C@@H](n2cc(Oc3nc(O)c4ccncc4n3)cn2)C1", "< 5.00"),
]

For the compound shown here, O=C(c1ccccc1)N1CCC[C@@H](n2cc(Oc3nc(O)c4ccncc4n3)cn2)C1 , give the reported pIC50.
5.00 to 6.00

Thanks! And Oc1nc(Oc2cnn([C@H]3CCNC3)c2)nc2cnccc12 ?
< 5.00

Thanks! And C[C@@H](c1ccccc1)n1cc(Oc2nc(O)c3ccncc3n2)cn1 ?
6.00 to 7.00
